Provenance of the data: the supplement of paper PMC11246515

Experiment: total protein half-life in vivo (active degradation + dilution); higher = more stable protein
Settings: wild type E. coli NCM3722; growth: P-lim chemostat; doubling time 6 h
measurement.name: total protein half-life in vivo (h)
The answer is to be given in h; state only the numeric part.

Check out these entries, answers already filled in.
| item.sequence | total protein half-life in vivo (h) |
| --- | --- |
| MSDDNSHSSDTISNKKGFFSLLLSQLFHGEPKNRDELLALIRDSGQNDLIDEDTRDMLEGVMDIADQRVRDIMIPRSQMITLKRNQTLDECLDVIIESAHSRFPVISEDKDHIEGILMAKDLLPFMRSDAEAFSMDKVLRQAVVVPESKRVDRMLKEFRSQRYHMAIVIDEFGGVSGLVTIEDILELIVGEIEDEYDEEDDIDFRQLSRHTWTVRALASIEDFNEAFGTHFSDEEVDTIGGLVMQAFGHLPARGETIDIDGYQFKVAMADSRRIIQVHVKIPDDSPQPKLDE [P0AE78] | 5.28 |
| MTLQQQIIKALGAKPQINAEEEIRRSVDFLKSYLQTYPFIKSLVLGISGGQDSTLAGKLCQMAINELRLETGNESLQFIAVRLPYGVQADEQDCQDAIAFIQPDRVLTVNIKGAVLASEQALREAGIELSDFVRGNEKARERMKAQYSIAGMTSGVVVGTDHAAEAITGFFTKYGDGGTDINPLYRLNKRQGKQLLAALACPEHLYKKAPTADLEDDRPSLPDEVALGVTYDNIDDYLEGKNVPQQVARTIENWYLKTEHKRRPPITVFDDFWKK | 5.74 |
| MDALELLINRRSASRLAEPAPTGEQLQNILRAGMRAPDHKSMQPWHFFVIEGEGRERFSAVLEQGAIAAGSDDKAIDKARNAPFRAPLIITVVAKCEENHKVPRWEQEMSAGCAVMAMQMAAVAQGFGGIWRSGALTESPVVREAFGCREQDKIVGFLYLGTPQLKASTSINVPDPTPFVTYF [P0ACY1] | 5.6 |

[in] Returns the measured total protein half-life in vivo for the input sequence. Input: `MMMGEVQSLPSAGLHPALQDALTLALAARPQEKAPGRYELQGDNIFMNVMTFNTQSPVEKKAELHEQYIDIQLLLNGEERILFGMAGTARQCEEFHHEDDYQLCSTIDNEQAIILKPGMFAVFMPGEPHKPGCVVGEPGEIKKVVVKVKADLMA`
[out] 4.2

[in] What value of total protein half-life in vivo has been recorded for this entry: `MSAQVSLELHHRISQFLFHEASLLDDWKFRDWLAQLDEEIRYTMRTTVNAQTRDRRKGVQPPTTWIFNDTKDQLERRIARLETGMAWAEEPPSRTRHLISNCQISETDIPNVFAVRVNYLLYRAQKERDETFYVGTRFDKVRRLEDDNWRLLERDIVLDQAVITSHNLSVLF`
[out] 5.1

---

Experiment: total protein half-life in vivo (active degradation + dilution); higher = more stable protein
Conditions: wild type E. coli NCM3722; growth: C-lim chemostat; doubling time 3 h
measurement.name: total protein half-life in vivo (h)
Quick note: give the figure in h, leave out the unit.

// solved cases for total protein half-life in vivo follow
| item.sequence | observed.result |
| --- | --- |
| MPKLRLIGLTLLALSATAVSHAEETRYVSDELNTWVRSGPGDHYRLVGTVNAGEEVTLLQTDANTNYAQVKDSSGRTAWIPLKQLSTEPSLRSRVPDLENQVKTLTDKLTNIDNTWNQRTAEMQQKVAQSDSVINGLKEENQKLKNELIVAQKKVDAASVQLDDKQRTIIMQWFMYGGGVLGLGLLLGLVLPHLIPSRKRKDRWMN [P0ADT8] | 3.03 |
| MVKKAIVTAMAVISLFTLMGCNNRAEVDTLSPAQAAELKPMPQSWRGVLPCADCEGIETSLFLEKDGTWVMNERYLGAREEPSSFASYGTWARTADKLVLTDSKGEKSYYRAKGDALEMLDREGNPIESQFNYTLEAAQSSLPMTPMTLRGMYFYMADAATFTDCATGKRFMVANNAELERSYLAARGHSEKPVLLSVEGHFTLEGNPDTGAPTKVLAPDTAGKFYPNQDCSSLGQ | 3.13 |

[in] So what does the record say about total protein half-life in vivo for `MPLLKLWAGSLVMLAAVSLPLQAASPVKVGSKIDTEGALLGNIILQVLESHGVPTVNKVQLGTTPVVRGAITSGELDIYPEYTGNGAFFFKDENDAAWKNAQQGYEKVKKLDSEHNKLIWLTPAPANNTWTIAVRQDVAEKNKLTSLADLSRYLQEGGTFKLAASAEFIERADALPAFEKAYGFKLGQDQLLSLAGGDTAVTIKAAAQQTSGVNAAMAYGTDGPVAALGLQTLSDPQGVQPIYAPAPVVRESVLREYPQMAQWLQPVFASLDAKTLQQLNASIAVEGLDAKKVAADYLKQKGWTK` ?
[out] 3.08

[in] Endpoint output: total protein half-life in vivo of `MERLKRMSVFAKVVEFGSFTAAARQLQMSVSSISQTVSKLEDELQVKLLNRSTRSIGLTEAGRIYYQGCRRMLHEVQDVHEQLYAFNNTPIGTLRIGCSSTMAQNVLAGLTAKMLKEYPGLSVNLVTGIPAPDLIADGLDVVIRVGALQDSSLFSRRLGAMPMVVCAAKSYLTQYGIPEKPADLSSHSWLEYSVRPDNEFELIAPEGISTRLIPQGRFVTNDPMTLVRWLTAGAGIAYVPLMWVINEINRGELEILLPRYQSDPRPVYALYTEKDKLPLKVQVVINSLTDYFVEVGKLFQEMHGRGKEK` . Value?
[out] 3.47

[in] What measured total protein half-life in vivo goes with `MDFNLNDEQELFVAGIRELMASENWEAYFAECDRDSVYPERFVKALADMGIDSLLIPEEHGGLDAGFVTLAAVWMELGRLGAPTYVLYQLPGGFNTFLREGTQEQIDKIMAFRGTGKQMWNSAITEPGAGSDVGSLKTTYTRRNGKIYLNGSKCFITSSAYTPYIVVMARDGASPDKPVYTEWFVDMSKPGIKVTKLEKLGLRMDSCCEITFDDVELDEKDMFGREGNGFNRVKEEFDHERFLVALTNYGTAMCAFEDAARYANQRVQFGEAIGRFQLIQEKFAHMAIKLNSMKNMLYEAAWKADNGTITSGDAAMCKYFCANAAFEVVDSAMQVLGGVGIAGNHRISRFWRDLRVDRVSGGSDEMQILTLGRAVLKQYR` ?
[out] 2.46

[in] Entry MSFFHASQRDALNQSLAEVQGQINVSFEFFPPRTSEMEQTLWNSIDRLSSLKPKFVSVTYGANSGERDRTHSIIKGIKDRTGLEAAPHLTCIDATPDELRTIARDYWNNGIRHIVALRGDLPPGSGKPEMYASDLVTLLKEVADFDISVAAYPEVHPEAKSAQADLLNLKRKVDAGANRAITQFFFDVESYLRFRDRCVSAGIDVEIIPGILPVSNFKQAKKFADMTNVRIPAWMAQMFDGLDDDAETRKLVGANIAMDMVKILSREGVKDFHFYTLNRAEMSYAICHTLGVRPGL [P0AEZ1] has what total protein half-life in vivo?
[out] 2.99

[in] Can you look up the measured total protein half-life in vivo of MKQYLIAPSILSADFARLGEDTAKALAAGADVVHFDVMDNHYVPNLTIGPMVLKSLRNYGITAPIDVHLMVKPVDRIVPDFAAAGASIITFHPEASEHVDRTLQLIKENGCKAGLVFNPATPLSYLDYVMDKLDVILLMSVNPGFGGQSFIPQTLDKLREVRRRIDESGFDIRLEVDGGVKVNNIGEIAAAGADMFVAGSAIFDQPDYKKVIDEMRSELAKVSHE [P0AG07] for me?
[out] 3.2

[in] Need total protein half-life in vivo of `MELKDYYAIMGVKPTDDLKTIKTAYRRLARKYHPDVSKEPDAEARFKEVAEAWEVLSDEQRRAEYDQMWQHRNDPQFNRQFHHGDGQSFNAEDFDDIFSSIFGQHARQSRQRPATRGHDIEIEVAVFLEETLTEHKRTISYNLPVYNAFGMIEQEIPKTLNVKIPAGVGNGQRIRLKGQGTPGENGGPNGDLWLVIHIAPHPLFDIVGQDLEIVVPVSPWEAALGAKVTVPTLKESILLTIPPGSQAGQRLRVKGKGLVSKKQTGDLYAVLKIVMPPKPDENTAALWQQLADAQSSFDPRKDWGKA` , thanks.
[out] 3.32

[in] Consider the sequence `MVRIYTLTLAPSLDSATITPQIYPEGKLRCTAPVFEPGGGGINVARAIAHLGGSATAIFPAGGATGEHLVSLLADENVPVATVEAKDWTRQNLHVHVEASGEQYRFVMPGAALNEDEFRQLEEQVLEIESGAILVISGSLPPGVKLEKLTQLISAAQKQGIRCIVDSSGEALSAALAIGNIELVKPNQKELSALVNRELTQPDDVRKAAQEIVNSGKAKRVVVSLGPQGALGVDSENCIQVVPPPVKSQSTVGAGDSMVGAMTLKLAENASLEEMVRFGVAAGSAATLNQGTRLCSHDDTQKIYAYLSR` and give its measured total protein half-life in vivo.
[out] 3.32

[in] Item under review: `MKKTAAIISACMLTFALSACSGSNYVMHTNDGRTIVSDGKPQTDNDTGMISYKDANGNKQQINRTDVKEMVELDQ` . Reported total protein half-life in vivo?
[out] 3.35
